Values from ChEMBL document CHEMBL1681684

# Test system: SK-MEL-2
# measurement.protocol: Anticancer activity against human SK-MEL-2 cells assessed as growth inhibition at 10 uM by MTT assay
# Assay type: functional
reported.property: inhibition at 10 µM (%)
Give a bare numeral; the unit % is implied.

# input Kindly indicate its recorded inhibition at 10 µM. Item: COc1ccc(Nc2nc(NCc3ccco3)c3ccccc3n2)cc1
# output 22.8

# input Kindly indicate its recorded inhibition at 10 µM. Item: Cc1cccc(Nc2nc(NCc3ccco3)c3ccccc3n2)c1
# output 77.6

# input Kindly indicate its recorded inhibition at 10 µM. Item: CCOc1ccc(Nc2nc(NCc3ccccc3)c3ccccc3n2)cc1
# output 91.6

# input Kindly indicate its recorded inhibition at 10 µM. Item: CN(C)CCNc1nc(-c2ccc(C(C)(C)C)cc2)nc2ccccc12
# output 91.5

# input Kindly indicate its recorded inhibition at 10 µM. Item: Oc1ccc(Nc2nc(NCc3ccco3)c3ccccc3n2)cc1
# output 39

# input Kindly indicate its recorded inhibition at 10 µM. Item: COc1ccc(Nc2nc(NCc3ccccc3)c3ccccc3n2)cc1
# output 81.2

# input Kindly indicate its recorded inhibition at 10 µM. Item: Fc1ccc(Nc2nc(NCc3ccccc3)c3ccccc3n2)cc1
# output 69.9

# input Kindly indicate its recorded inhibition at 10 µM. Item: Oc1cccc(Nc2nc(NCc3ccccc3)c3ccccc3n2)c1
# output 46.7
